Sourced from patent US20110021565A1

- tested-on: recombinant human NK3 receptor (Homo sapiens)
- Construct: expressed in transfected cells; host or cells: HEK293 cells, transient expression; membrane preparation
- Sequence (P29371 1-465): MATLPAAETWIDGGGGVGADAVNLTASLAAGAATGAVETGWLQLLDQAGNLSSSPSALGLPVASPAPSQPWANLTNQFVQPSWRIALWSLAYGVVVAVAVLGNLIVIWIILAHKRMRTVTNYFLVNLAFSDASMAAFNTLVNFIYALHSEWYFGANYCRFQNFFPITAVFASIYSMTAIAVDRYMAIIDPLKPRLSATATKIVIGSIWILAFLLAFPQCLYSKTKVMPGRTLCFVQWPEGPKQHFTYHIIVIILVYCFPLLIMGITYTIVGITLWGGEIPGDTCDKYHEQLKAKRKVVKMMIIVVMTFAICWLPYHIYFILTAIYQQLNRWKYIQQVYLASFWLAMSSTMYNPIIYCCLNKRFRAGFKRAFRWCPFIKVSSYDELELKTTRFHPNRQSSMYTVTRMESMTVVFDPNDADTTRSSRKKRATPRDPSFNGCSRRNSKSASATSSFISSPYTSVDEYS
- assay-name: [3H]SR142801 competition binding assay
- stated-conditions: [3H]SR142801, membranes of HEK293 cells transiently expressing recombinant human NK3 receptor; read-out: hNK3 Ki
pKi: −log10 of the molar value. Structures can show the parent of a compound that is named as a salt.
reported-metric: pKi

[[record]]
compound = "CN(Cc1ccc(Cl)cc1)C(=O)C(F)(CCN1CCC(NS(C)(=O)=O)CC1)c1ccc(Cl)c(Cl)c1 (centres unmarked)"
val = 6.98

[[record]]
compound = "CN(Cc1ccc(F)c(C(F)(F)F)c1)C(=O)C(C)(CCN1CCC(N2CCCC2=O)CC1)c1ccc(Cl)c(Cl)c1 (single isomer, unassigned) [Example 119, hydrochloride]"
val = 9.10

[[record]]
compound = "COCCN(C(C)=O)C1CCN(CCC(C)(C(=O)N[C@@H](CO)c2ccc(Cl)c(Cl)c2)c2ccc(Cl)c(Cl)c2)CC1 (some centres unmarked)"
val = 8.42

[[record]]
compound = "CN(Cc1ccc(F)c(C(F)(F)F)c1)C(=O)C(C)(CCN1CCC(NS(C)(=O)=O)CC1)c1ccc(Cl)c(Cl)c1 (centres unmarked)"
val = 7.63

[[record]]
compound = "CC(NC(=O)C(C)(CCN1CCC(N2CCCC2=O)CC1)c1ccc(Cl)c(Cl)c1)c1ccc(F)c(C(F)(F)F)c1 (centres unmarked)"
val = 7.60

[[record]]
compound = "CC(=O)N(C)C1CCN(CCC(C)(C(=O)NC(C)c2ccc(F)c(C(F)(F)F)c2)c2ccc(Cl)c(Cl)c2)CC1 (centres unmarked)"
val = 7.34


1. CN(Cc1ccc(Cl)c(C(F)(F)F)c1)C(=O)C(C)(CCN1CCC(N(C)S(C)(=O)=O)CC1)c1ccc(Cl)c(Cl)c1 (centres unmarked)
2. CC(=O)NC1CCN(CCC(C)(C(=O)N[C@H](CO)c2ccc(Cl)c(Cl)c2)c2ccc(Cl)c(Cl)c2)CC1 (single isomer, unassigned; diastereoisomer 2)
Just tell me: smaller pKi value, 1 or 2 ? // caller expects the label of the chosen entry 2

a. CC(CCN1CCC(NS(C)(=O)=O)CC1)(C(=O)NCc1ccc(OC(F)(F)F)cc1)c1ccc(Cl)c(Cl)c1 (centres unmarked)
b. COCCN(C(C)=O)C1CCN(CCC(C)(C(=O)N[C@H](CO)c2ccc(Cl)c(Cl)c2)c2ccc(Cl)c(Cl)c2)CC1 (some centres unmarked)
c. CC(=O)N(C1CC1)C1CCN(CCC(C)(C(=O)N[C@@H](CO)c2ccc(Cl)c(Cl)c2)c2ccc(Cl)c(Cl)c2)CC1 (single isomer, unassigned; diastereoisomer 1)
d. CC(=O)N(C)C1CCN(CCC(C)(C(=O)N[C@@H](CO)c2ccccc2)c2ccc(Cl)c(Cl)c2)CC1 (some centres unmarked)
e. CN(Cc1ccc(C(F)(F)F)c(F)c1)C(=O)C(C)(CCN1CCC(N2CCCC2=O)CC1)c1ccc(Cl)c(Cl)c1 (centres unmarked)
Parameters: sort_field (pKi), sort_dir (desc). Answer format: the labels, ordered as requested. e, c, b, d, a

I. COc1ccc(CN(C)C(=O)C(C)(CCN2CCC(NS(C)(=O)=O)CC2)c2ccc(Cl)c(Cl)c2)cc1F (centres unmarked)
II. CN(Cc1ccc(Cl)c(C(F)(F)F)c1)C(=O)C(C)(CCN1CCC(NS(C)(=O)=O)CC1)c1ccc(Cl)c(Cl)c1 (centres unmarked)
III. CCCN(C(C)=O)C1CCN(CCC(C)(C(=O)N[C@@H](CO)c2ccc(F)cc2)c2ccc(Cl)c(Cl)c2)CC1 (single isomer, unassigned; epimer 2) [Example 163]
IV. CN(Cc1ccc(Cl)cc1)C(=O)C(CCN1CCC(NS(C)(=O)=O)CC1)c1ccc(Cl)c(Cl)c1 (centres unmarked)
Task for the reader: rank each entry by its pKi, from the minimum upward. Answer format: the labels, ordered as requested. I, IV, II, III
(I: 6.73, IV: 7.10, II: 7.65, III: 8.25)

====

- tested-on: recombinant human NK3 receptor (Homo sapiens, UniProt P29371)
- Construct: expressed in transfected cells; host or cells: HEK293 cells, transient expression; membrane preparation
- assay-name: [3H]SR142801 competition binding assay
- stated-conditions: [3H]SR142801, membranes of HEK293 cells transiently expressing recombinant human NK3 receptor; read-out: hNK3 Ki
reported-metric: Ki (nM)

[[record]]
compound = "CN(Cc1ccc(F)c(C(F)(F)F)c1)C(=O)C(C)(CCN1CCC(N(C2CC2)S(C)(=O)=O)CC1)c1ccc(Cl)c(Cl)c1 (stereo not drawn)"
reported_metric = "Ki"
val = 4.3


P. CCN(C1CCN(CCC(C)(C(=O)N[C@H](CO)c2ccc(Cl)c(Cl)c2)c2ccc(Cl)c(Cl)c2)CC1)S(C)(=O)=O (single isomer, unassigned; diastereoisomer 2)
Q. Cc1ccc(CN(C)C(=O)C(F)(CCN2CCC(NS(C)(=O)=O)CC2)c2ccc(Cl)c(Cl)c2)cc1 (stereo not drawn)
Param pair: P , Q . Output: the one whose Ki is numerically greater. // caller expects the label of the chosen entry Q
(Q: 323 nM, P: 13.3 nM)

====

- tested-on: recombinant human NK3 receptor (Homo sapiens)
- Construct: expressed in transfected cells; host or cells: HEK293 cells, transient expression; membrane preparation
- Sequence (P29371 1-465): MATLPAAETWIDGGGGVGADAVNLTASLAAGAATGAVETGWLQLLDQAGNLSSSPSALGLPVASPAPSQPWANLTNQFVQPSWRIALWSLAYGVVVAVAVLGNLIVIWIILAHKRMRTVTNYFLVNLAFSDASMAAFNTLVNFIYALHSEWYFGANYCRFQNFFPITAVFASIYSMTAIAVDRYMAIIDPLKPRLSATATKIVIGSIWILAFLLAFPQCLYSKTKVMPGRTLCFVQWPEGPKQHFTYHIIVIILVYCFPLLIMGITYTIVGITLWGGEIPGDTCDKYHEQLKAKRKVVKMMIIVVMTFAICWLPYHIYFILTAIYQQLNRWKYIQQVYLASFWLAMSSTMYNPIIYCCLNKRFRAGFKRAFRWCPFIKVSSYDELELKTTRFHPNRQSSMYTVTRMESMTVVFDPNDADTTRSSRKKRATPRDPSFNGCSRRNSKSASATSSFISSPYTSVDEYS
- assay-name: [3H]SR142801 competition binding assay
- stated-conditions: representative compounds; [3H]SR142801, HEK293 membranes, human NK3 receptor; read-out: Ki NK3 h
pKi: −log10 of the molar value.
reported-metric: pKi

[[record]]
molecule = "CN(Cc1ccccc1Cl)C(=O)C(C)(CCN1CCC(N2CCCC2=O)CC1)c1ccc(Cl)c(Cl)c1 (centres unmarked) [Example 90]"
reported_metric = "pKi"
val = 8.60

[[record]]
molecule = "CCN(C1CCN(CCC(C)(C(=O)NCc2ccc(Cl)c(Cl)c2)c2ccc(Cl)c(Cl)c2)CC1)S(C)(=O)=O (centres unmarked) [Example 71]"
reported_metric = "pKi"
val = 8.55


1. CN(Cc1ccc(Cl)c(Cl)c1)C(=O)C(C)(CCN1CCC(N(C2CC2)S(C)(=O)=O)CC1)c1ccc(Cl)c(Cl)c1 (centres unmarked) [Example 60]
2. CCCN(C(C)=O)C1CCN(CCC(C)(C(=O)N[C@@H](CO)c2ccc(F)cc2)c2ccc(Cl)c(Cl)c2)CC1 (single isomer, unassigned; epimer 2) [Example 163]
3. CCCN(C(C)=O)C1CCN(CCC(C)(C(=O)N[C@@H](CC)c2ccccc2)c2ccc(Cl)c(Cl)c2)CC1 (some centres unmarked) [Example 164]
Parameters: sort_field (pKi), sort_dir (desc). Answer format: the labels, ordered as requested. 3, 1, 2
(3: 9.10, 1: 8.59, 2: 8.25)

====

- tested-on: recombinant human NK3 receptor (Homo sapiens, UniProt P29371)
- Construct: expressed in transfected cells; host or cells: HEK293 cells, transient expression; membrane preparation
- Sequence (P29371 1-465): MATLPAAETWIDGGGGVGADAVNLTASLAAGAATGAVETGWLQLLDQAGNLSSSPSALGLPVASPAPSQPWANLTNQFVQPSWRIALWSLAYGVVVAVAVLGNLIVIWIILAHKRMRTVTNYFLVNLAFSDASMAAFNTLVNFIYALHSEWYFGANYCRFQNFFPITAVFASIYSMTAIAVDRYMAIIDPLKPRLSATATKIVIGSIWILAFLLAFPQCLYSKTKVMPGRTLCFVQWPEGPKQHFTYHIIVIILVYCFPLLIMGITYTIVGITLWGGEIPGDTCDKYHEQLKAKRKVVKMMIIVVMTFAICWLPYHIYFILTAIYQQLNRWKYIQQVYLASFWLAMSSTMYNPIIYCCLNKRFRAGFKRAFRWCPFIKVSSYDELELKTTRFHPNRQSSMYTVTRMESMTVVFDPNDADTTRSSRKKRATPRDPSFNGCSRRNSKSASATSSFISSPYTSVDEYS
- assay-name: [3H]SR142801 competition binding assay
- stated-conditions: representative compounds; [3H]SR142801, HEK293 membranes, human NK3 receptor; read-out: Ki NK3 h
reported-metric: Ki (nM)

Below, each entry is followed by its recorded Ki result.
[[record]]
compound = "CC(=O)N(C)C1CCN(CCC(C)(C(=O)NCc2ccc(C(F)(F)F)c(F)c2)c2ccc(Cl)c(Cl)c2)CC1 (stereo not drawn)"
val = 5.8

[[record]]
compound = "CCN(C1CCN(CCC(C)(C(=O)N(C)Cc2ccccc2Cl)c2ccc(Cl)c(Cl)c2)CC1)S(C)(=O)=O (stereo not drawn)"
val = 3.6

[[record]]
compound = "CC(CCN1CCC(N2CCCC2=O)CC1)(C(=O)NCc1ccc(F)c(C(F)(F)F)c1)c1ccc(Cl)c(Cl)c1 (stereo not drawn)"
val = 3.4

[[record]]
compound = "CC(=O)N(C)C1CCN(CCC(C)(C(=O)NCc2ccc(Cl)c(Cl)c2)c2ccc(Cl)c(Cl)c2)CC1 (stereo not drawn)"
val = 6.8

[[record]]
compound = "CCCN(C(C)=O)C1CCN(CCC(C)(C(=O)N[C@@H](CO)c2ccc(F)cc2)c2ccc(Cl)c(Cl)c2)CC1 (single isomer, unassigned; epimer 1) [Example 162]"
val = 0.5


a. CN(Cc1ccc(Cl)c(C(F)(F)F)c1)C(=O)C(C)(CCN1CCC(N(C2CC2)S(C)(=O)=O)CC1)c1ccc(Cl)c(Cl)c1 (stereo not drawn)
b. COCCN(C(C)=O)C1CCN(CCC(C)(C(=O)N[C@@H](CO)c2ccc(F)cc2)c2ccc(Cl)c(Cl)c2)CC1 (single isomer, unassigned; diastereoisomer 1) [Example 146]
c. CN(Cc1ccc(Cl)c(C(F)(F)F)c1)C(=O)C(C)(CCN1CCC(N(C)S(C)(=O)=O)CC1)c1ccc(Cl)c(Cl)c1 (stereo not drawn)
d. CC(CCN1CCC(N2CCCC2=O)CC1)(C(=O)N[C@@H](CO)c1ccc(F)cc1)c1ccc(Cl)c(Cl)c1 (single isomer, unassigned)
e. CC(=O)N(C)C1CCN(CCC(C)(C(=O)N[C@@H](CO)c2ccc(Cl)c(Cl)c2)c2ccc(Cl)c(Cl)c2)CC1 (single isomer, unassigned; diastereoisomer 1)
Task for the reader: rank each entry by its Ki, from the minimum upward. Answer format: the labels, ordered as requested. b, c, a, e, d

A. COCCN(C(C)=O)C1CCN(CCC(C)(C(=O)N[C@@H](CO)c2ccc(Cl)c(Cl)c2)c2ccc(Cl)c(Cl)c2)CC1 (stereo partly drawn)
B. CCN(C1CCN(CCC(C)(C(=O)N(C)Cc2ccc(C(F)(F)F)cc2)c2ccc(Cl)c(Cl)c2)CC1)S(C)(=O)=O (stereo not drawn)
Just tell me: smaller Ki value, A or B ? // caller expects the label of the chosen entry B
